Values from PubChem BioAssay

experiment: inhibitors of polyQ protein aggregation (AID 1604); settings: polyglutamine-induced protein aggregation inhibition assay; stronger effect = higher value; tested at 2.5 µM
Everything with inhibition of aggregation lower than 60% is no (0); everything else, including exactly 60%, is yes (1).

Task: Kindly determine if inhibition of aggregation recorded for CCOc1ccccc1OCC1CNCCO1 (stereo not given) is above or exactly 60%.
Result: no (0)

Task: Kindly determine if inhibition of aggregation recorded for CC1=C(/C=C/C(C)=C/C=C/C(C)=C/CO)C(C)(C)CCC1 is above or exactly 60%.
Result: yes (1)

Task: Kindly determine if inhibition of aggregation recorded for Oc1cc(O)c2c(c1)O[C@H](c1ccc(O)c(O)c1)[C@@H](O)C2 is above or exactly 60%.
Result: yes (1)

Task: Kindly determine if inhibition of aggregation recorded for CC(=O)NC(Cc1ccccc1)C(=O)O (stereo not given) is above or exactly 60%.
Result: yes (1)

Task: Kindly determine if inhibition of aggregation recorded for NC(N)=NCCCCN=C(N)N is above or exactly 60%.
Result: yes (1)

Task: Kindly determine if inhibition of aggregation recorded for CCCn1c(=O)c2[nH]c(C3CCCC3)nc2n(CCC)c1=O is above or exactly 60%.
Result: no (0)

Task: Kindly determine if inhibition of aggregation recorded for COc1cc(Cc2cnc(N)nc2N)cc(OC)c1OC is above or exactly 60%.
Result: yes (1)

Task: Kindly determine if inhibition of aggregation recorded for CC(C)=CCC1=C(O)c2ccccc2C(=O)C1=O is above or exactly 60%.
Result: yes (1)
